species: Rattus norvegicus; assay: Displacement of [3H]prazosin from alpha1 adrenergic receptor in Sprague-Dawley rat cortical membrane at 1 uM
Please respond with yes when measured Activity is strictly beneath 20%, and with no in all other cases.

INSERT INTO measurements (molecule, assigned_category) VALUES
  ('CC(CCc1c[nH]c2ccc(F)cc12)N(CC1CC1)C1COc2c(F)ccc(C(N)=O)c2C1 (single isomer, unassigned; (-))', 'yes');

### Prompt Given CCCNC(=O)c1ccc(F)c2c1CC(N(CCCc1c[nH]c3ccc(F)cc13)C1CCC1)CO2 (configuration not stated) , is recorded Activity strictly lower than 20%?
### Response no

### Prompt Given `CCCN(CCCc1c[nH]c2ccc(F)cc12)[C@H]1COc2cccc(C(N)=O)c2C1` , is recorded Activity strictly lower than 20%?
### Response no

* * *

Molecular target: 5-hydroxytryptamine receptor 1A (Homo sapiens)
Sequence (P08908 whole entry): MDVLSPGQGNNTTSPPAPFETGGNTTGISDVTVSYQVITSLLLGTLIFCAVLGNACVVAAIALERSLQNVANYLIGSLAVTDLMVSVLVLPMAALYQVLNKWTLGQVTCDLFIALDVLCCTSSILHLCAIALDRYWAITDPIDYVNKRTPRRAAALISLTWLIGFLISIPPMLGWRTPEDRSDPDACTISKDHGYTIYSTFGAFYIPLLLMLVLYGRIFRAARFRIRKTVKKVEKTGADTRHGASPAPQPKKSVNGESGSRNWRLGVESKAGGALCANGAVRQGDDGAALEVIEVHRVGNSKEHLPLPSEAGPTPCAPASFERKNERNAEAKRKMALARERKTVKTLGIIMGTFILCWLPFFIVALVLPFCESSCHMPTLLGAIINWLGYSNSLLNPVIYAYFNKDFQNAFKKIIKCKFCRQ
The following compounds are listed with their measured IC50 values.

INSERT INTO results (compound, tested_target, endpoint_result) VALUES
  ('COc1cccc2c1CC(N(CCCc1c[nH]c3ccc(F)cc13)C1CCC1)CO2 (centres undefined)', '5-hydroxytryptamine receptor 1A (Homo sapiens)', '> 2000 nM'),
  ('NC(=O)c1ccc(F)c2c1CC(N(CCCCn1ccc3cc(F)ccc31)C1CCC1)CO2 (centres undefined)', '5-hydroxytryptamine receptor 1A (Homo sapiens)', '> 1000 nM'),
  ('CCCN(CC1CCc2[nH]c3ccc(F)cc3c2C1)[C@H]1COc2c(F)ccc(C(N)=O)c2C1 (stereo in doubt; 58a)', '5-hydroxytryptamine receptor 1A (Homo sapiens)', '> 1000 nM');

Next, consider the following compound.
Per the records, this compound ( CCNC(=O)c1ccc(F)c2c1CC(N(CCCc1c[nH]c3ccc(F)cc13)C1CCC1)CO2 (centres undefined) ) has IC50 equal to > 1000 nM

* * *

organism: Rattus norvegicus; assay: Displacement of [3H]prazosin from alpha1 adrenergic receptor in Sprague-Dawley rat cortical membrane at 1 uM
reported.endpoint: Activity (%)
The response must be a number in % with no trailing unit.

Per the records, this compound ( NC(=O)c1ccc(F)c2c1CC(N(CCCCn1ccc3c(F)cccc31)CC1CC1)CO2 (centres undefined) ) has Activity equal to 18

Per the records, this compound ( COc1cccc2c(CCCN(C3CCC3)C3COc4c(F)ccc(C(N)=O)c4C3)c[nH]c12 (centres undefined) ) has Activity equal to 15

Per the records, this compound ( NC(=O)c1ccc(F)c2c1CC(N(CCCCn1ccc3c(F)cccc31)C1CCC1)CO2 (centres undefined) ) has Activity equal to 5

* * *

The following compounds are listed with their measured Activity values.
species on record: Rattus norvegicus; test: Displacement of [3H]prazosin from alpha1 adrenergic receptor in Sprague-Dawley rat cortical membrane at 1 uM

Per the records, this compound ( NC(=O)c1ccc(F)c2c1CC(N(CCCc1c[nH]c3cc(F)ccc13)C1CCC1)CO2 (stereo unspecified) ) has Activity equal to 30%

Per the records, this compound ( CCCN(CC1CCc2[nH]c3ccc(F)cc3c2C1)[C@H]1COc2c(F)ccc(C(N)=O)c2C1 (stereo in doubt; 58a) ) has Activity equal to 5%

* * *

species on record: Rattus norvegicus; test: Displacement of [3H]prazosin from alpha1 adrenergic receptor in Sprague-Dawley rat cortical membrane at 1 uM
The following compounds are listed with their measured Activity values.
The response must be a number in % with no trailing unit.

Worked examples, 2 compounds total:
INSERT INTO results (compound, reported_endpoint, endpoint_result) VALUES
  ('NC(=O)c1ccc(F)c2c1CC(N(CCCc1c[nH]c3ccc(Cl)cc13)C1CCC1)CO2 (centres undefined)', 'Activity', 20),
  ('CCCN(CCCc1c[nH]c2ccc(F)cc12)[C@@H]1COc2c(F)ccc(C(N)=O)c2C1', 'Activity', 46);

Per the records, this compound ( NC(=O)c1ccc(Cl)c2c1CC(N(CCCc1c[nH]c3ccc(F)cc13)C1CCC1)CO2 (single isomer, unassigned; (-)) ) has Activity equal to 22

Per the records, this compound ( NC(=O)c1cccc2c1CC(N(CCCc1c[nH]c3ccc(F)cc13)C1CCC1)CO2 (single isomer, unassigned; (-)) ) has Activity equal to 10
